Source: PubChem BioAssay (NCI)

tested on: HCT-15 colon; assay: NCI tumour cell line growth inhibition, 48 h
Below, each entry is listed alongside its reported TGI.

{"Compound": "C=C1[C@@H](O)C[C@H]2C(C)(C)C[C@H](Cl)C[C@]2(C)[C@H]1C[C@H](O)[C@H]1CC(=O)NC1=O", "Target of assay": "HCT-15 colon", "Value units": "µM", "Value operator": "=", "TGI": 0.596}
{"Compound": "CC(=O)OC1CC2(O)C(CCC3(C)C(c4ccc(=O)oc4)CCC32O)C2(C)CCC(OC3OC(CO)C(O)C(O)C3O)C=C12 (configuration not stated)", "Target of assay": "HCT-15 colon", "Value units": "µM", "Value operator": "=", "TGI": 0.134}
{"Compound": "Cc1[nH]c(=O)nc(N/N=C/c2ccc(Cl)cc2)c1C(=O)Nc1ccc(Cl)cc1", "Target of assay": "HCT-15 colon", "Value units": "µM", "Value operator": ">", "TGI": 100}
{"Compound": "Clc1ccc(-c2nc(C(Cl)Cl)nc3cc(-c4ccccc4)nn23)cc1", "Target of assay": "HCT-15 colon", "Value units": "µM", "Value operator": ">", "TGI": 50}
{"Compound": "O=C1Nc2ccccc2/C1=N/N1C(=O)/C(=C/c2ccccc2S)N=C1c1ccccc1", "Target of assay": "HCT-15 colon", "Value units": "µM", "Value operator": ">", "TGI": 100}
{"Compound": "Cc1cc(C)nc(NS(=O)(=O)c2ccc(Nc3nnc(/C=C/c4c(O)ccc5ccccc45)c(=O)n3N)cc2)n1", "Target of assay": "HCT-15 colon", "Value units": "µM", "Value operator": "=", "TGI": 30.9}
{"Compound": "Cn1c(-c2cccs2)cc(-c2ccsc2)c1-c1cccs1", "Target of assay": "HCT-15 colon", "Value units": "µM", "Value operator": ">", "TGI": 100}
